target under test: endothelin receptor (Bos taurus)
Construct: from tissue; host or cells: bovine cerebellar membrane fraction
Sequence (P28088 27-441): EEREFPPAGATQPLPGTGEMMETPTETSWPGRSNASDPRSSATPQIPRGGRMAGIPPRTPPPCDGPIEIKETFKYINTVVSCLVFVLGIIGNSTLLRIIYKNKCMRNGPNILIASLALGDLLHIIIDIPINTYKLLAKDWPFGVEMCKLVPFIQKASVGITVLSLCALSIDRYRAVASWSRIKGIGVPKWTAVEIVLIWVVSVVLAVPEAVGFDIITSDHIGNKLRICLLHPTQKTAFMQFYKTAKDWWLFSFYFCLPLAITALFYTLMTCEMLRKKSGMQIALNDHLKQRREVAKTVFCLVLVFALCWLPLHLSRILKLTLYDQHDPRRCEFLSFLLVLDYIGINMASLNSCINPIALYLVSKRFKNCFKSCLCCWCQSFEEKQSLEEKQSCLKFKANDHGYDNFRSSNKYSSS
assay summary: Endothelin receptor-antagonizing effect: 125I-endothelin-1 binding to bovine cerebellar tissue membrane fraction
pIC50: −log10 of the molar value. Bridge positions count the residues as written; N and C are the ends. Peptide text beside a SMILES is read from it.
pIC50 values for the compounds below.

Below: 2 compounds and their reported pIC50.
compound: C[C@@H]1NC(=O)[C@H]([C@@H](C)O)NC(=O)CNC(=O)[C@H](Cc2c[nH]cn2)NC(=O)[C@H](Cc2c[nH]c3ccccc23)NC(=O)[C@H](CC(N)=O)NC(=O)CNC(=O)C[C@@H](C(=O)N[C@@H](Cc2c[nH]c3ccccc23)C(=O)O)NC(=O)[C@@H]2CCCN2C1=O [Compound I-15] (GNWHGTAPDW-OH; lactam N-9)
result: < 6.05

compound: C[C@@H]1NC(=O)[C@H](C)NC(=O)[C@H]([C@@H](C)O)NC(=O)CNC(=O)[C@H](Cc2c[nH]cn2)NC(=O)[C@H](Cc2c[nH]c3ccccc23)NC(=O)[C@H](CC(N)=O)NC(=O)CNC(=O)C[C@@H](C(=O)N[C@@H](Cc2c[nH]c3ccccc23)C(=O)N[C@@H](Cc2ccccc2)C(=O)N[C@@H](Cc2ccccc2)C(=O)N[C@@H](CC(N)=O)C(=O)N[C@@H](Cc2ccc(O)cc2)C(=O)N[C@@H](Cc2ccc(O)cc2)C(=O)N[C@@H](Cc2c[nH]c3ccccc23)C(=O)O)NC1=O [Compound I-36] (GNWHGTAADWFFNYYW-OH; lactam N-9)
result: < 6.24

// next entry
Ask: Tell me reported pIC50 for C[C@@H]1NC(=O)[C@H]([C@@H](C)O)NC(=O)CNC(=O)[C@H](Cc2c[nH]cn2)NC(=O)[C@H](Cc2c[nH]c3ccccc23)NC(=O)[C@H](CC(N)=O)NC(=O)CNC(=O)C[C@@H](C(=O)N[C@@H](Cc2c[nH]c3ccccc23)C(=O)N[C@@H](Cc2ccccc2)C(=O)N[C@@H](Cc2ccccc2)C(=O)N[C@@H](CC(N)=O)C(=O)N[C@@H](Cc2ccc(O)cc2)C(=O)N[C@@H](Cc2ccc(O)cc2)C(=O)N[C@@H](Cc2ccc3ccccc3c2)C(=O)O)NC(=O)[C@@H]2CCCN2C1=O , tested with endothelin receptor (Bos taurus).
Result: 8.20
